The reported measurements were obtained from ChEMBL document CHEMBL1201862.

Tested on: HL-60
Assay: NCI tumour cell line growth inhibition, 48 h
Activity calls are given as the source filed them. Rule as the data show it: active = GI50 up to about 1.1 µM and inactive = higher.
REPORTED_PROPERTY: GI50

- COMPOUND: "C=CCN1/C(=C(\\C#N)c2nc3ccccc3[nH]2)Sc2c1nc[nH]c2=O"
  REPORTED_PROPERTY: "GI50"
  ASSAY_VALUE: "> 100 µM (inactive)"
- COMPOUND: "CC(=O)O[C@]12CCCCCC1C1(O)C(O)CCCC[C@H]12 (some centres undefined)"
  REPORTED_PROPERTY: "GI50"
  ASSAY_VALUE: "> 100 µM (inactive)"
- COMPOUND: "CC(C)CCCC(C)[C@H]1CCC2[C@@H]3CCC4Cc5nc6c(nc5C[C@]4(C)C3CC[C@@]21C)CC1CC[C@@H]2C(CC[C@@]3(C)C2CC[C@@H]3O)[C@@]1(C)C6 (some centres undefined)"
  REPORTED_PROPERTY: "GI50"
  ASSAY_VALUE: "> 100 µM (inactive)"
- COMPOUND: "CCCNC(=S)NNC(=O)CSc1nc(-c2ccccc2)c(-c2ccccc2)[nH]1"
  REPORTED_PROPERTY: "GI50"
  ASSAY_VALUE: "23.2 µM (inactive)"
